Entries and their IC50 values follow.
Test system: BRD4 BD2 (Homo sapiens, UniProt O60885, Y97A)
Construct: BRD4 (1-477) (Y97A) and (Y390A); made in house; host or cells: E. coli (pET15b vector)
Assay details: BRD4 BD2 mutant TR-FRET competition assay
Assay type: binding
Condition: read-out: pIC50 in the BRD4 BD2 assay (converted)
Where a name gives a salt, the structure may show the parent alone.

Previously resolved entries follow.
CNC(=O)c1cc(C(=O)NC2CN(C(=O)OC(C)(C)C)C2)cn(Cc2ccccc2)c1=O	100 to 1000 nM
CNC(=O)c1cc(C(=O)NC2CN(C)C2)cn(Cc2ccccc2)c1=O	1000 to 100000 nM
CNC(=O)c1cc(C(=O)NCCC2CCNCC2)cn(Cc2cccc(OCCO)c2)c1=O	≤ 100 nM
CNC(=O)c1cc(C(=O)NCCOC2CCNC2)cn(Cc2ccccc2)c1=O (stereo not drawn) [Example 67, hydrochloride]	100 to 1000 nM
CNC(=O)c1cc(C(=O)NCCC2CCNCC2)cn(Cc2ccccc2)c1=O	≤ 100 nM

Documented IC50 of CNC(=O)c1cc(C(=O)NCCCC2CCN(CC(F)(F)F)CC2)cn(Cc2ccccc2)c1=O : ≤ 100 nM

IC50 for CNC(=O)c1cc(C(=O)NCCCC2CCNCC2)cn(Cc2ccccc2F)c1=O is ≤ 100 nM

Field IC50 (entry CNC(=O)c1cc(C(=O)N[C@H]2[C@@H]3COC[C@@H]32)cn(Cc2ccccc2)c1=O ) reads ≤ 100 nM

Quick note, IC50 for CNC(=O)c1cc(C(=O)NCCCC2CCNCC2)cn(Cc2ccc(F)cc2)c1=O landed at ≤ 100 nM

What the record says about CNC(=O)c1cc(C(=O)NCCCN2CCN(C)CC2)cn(Cc2ccccc2)c1=O : IC50 is 100 to 1000 nM
